# Target Or System: Rho-A (Homo sapiens (Human), UniProt P61586)
# Sequence (P61586 whole entry): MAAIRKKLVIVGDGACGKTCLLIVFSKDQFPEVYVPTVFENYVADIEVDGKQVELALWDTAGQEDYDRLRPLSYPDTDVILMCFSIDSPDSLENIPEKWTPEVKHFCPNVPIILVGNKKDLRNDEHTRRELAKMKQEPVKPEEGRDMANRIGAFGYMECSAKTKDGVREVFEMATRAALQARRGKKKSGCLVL
# Test Description: Rho inhibition assay (labeled GTP)
# Format: binding
# Details: read-out: Rho-A % Inh.
Property: inhibition at 20 µM; scope: individual compounds

Observe how each entry below is paired with its result.
Compound	inhibition at 20 µM
CC(C)Cc1csc2c(O)nc(-c3ccccn3)nc12 [drawing 3813]	76 to 100%
Nc1nc(O)c2sc(-c3cccc(C(=O)NCc4ncc[nH]4)c3)cc2n1 [drawing 3863]	0%
COc1ccc(-c2csc3c(O)nc(-c4ccccn4)nc23)c(C)c1 [drawing 3753]	76 to 100%
COc1ccnc(-c2nc(O)c3c(C(F)(F)F)csc3n2)c1 [drawing 3705]	51 to 75%

QUERY: Which value of inhibition at 20 µM has been reported for COCCCCNC(=O)c1csc2nc(-c3ccccn3)nc(N3CCS(=O)(=O)CC3)c12 [drawing 3698] in the records?
RESULT: 1 to 25%

QUERY: Requested read-out: inhibition at 20 µM. Entry: Cn1ccnc1-c1nc(O)c2sc(-c3ccccc3)c(-c3ccccc3)c2n1 [drawing 3906]
RESULT: 1 to 25%

QUERY: Entry under review: COCCNc1nc(-c2ccccn2)nc2c1c(-c1ccccc1)nn2-c1ccccn1 [drawing 3856] . Reported inhibition at 20 µM?
RESULT: 76 to 100%
